Target Or System: enzyme ACAT-1 (Homo sapiens)
Construct: endogenous in cells
Sequence (P35610 whole entry): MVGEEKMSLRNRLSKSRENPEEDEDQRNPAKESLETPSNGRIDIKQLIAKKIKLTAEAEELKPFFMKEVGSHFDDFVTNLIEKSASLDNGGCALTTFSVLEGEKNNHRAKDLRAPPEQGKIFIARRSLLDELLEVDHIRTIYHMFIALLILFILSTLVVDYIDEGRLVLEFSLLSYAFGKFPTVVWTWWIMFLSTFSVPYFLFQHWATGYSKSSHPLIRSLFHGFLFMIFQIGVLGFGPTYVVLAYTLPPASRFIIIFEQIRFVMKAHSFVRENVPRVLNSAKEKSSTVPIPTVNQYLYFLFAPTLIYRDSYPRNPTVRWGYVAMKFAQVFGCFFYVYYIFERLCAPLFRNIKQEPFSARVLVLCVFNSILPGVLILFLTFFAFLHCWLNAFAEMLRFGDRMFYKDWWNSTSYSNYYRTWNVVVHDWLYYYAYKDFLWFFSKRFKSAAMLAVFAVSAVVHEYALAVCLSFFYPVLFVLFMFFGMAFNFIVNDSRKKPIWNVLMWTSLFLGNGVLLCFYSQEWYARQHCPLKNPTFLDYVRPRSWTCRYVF
Assay Name: HepG2 NBD-cholesterol fluorescence test of inhibitory activity towards ACAT-1 (SOAT-1)
Recorded Conditions: HepG2 cells, NBD-cholesterol 1 μg/ml, incubation 6 hours at 37° C., fluorescence read (490/540 nm)
Measured Metric: IC50 (nM)
Write the value in nM as a bare number.

> print(dat)
                                   compound  val
1  CCC(NC(=O)CN1C(=O)N(c2ccc(C)cc2)C2(CCCCC2)C1=O)c1cccc(C(F)(F)F)c1 (stereo not shown)    9

Note IC50 for the compound shown: Cc1ccc(N2C(=O)N(CC(=O)NC(c3ccccc3)C(C)C)C(=O)C23CCCCC3)cc1 (stereo not shown)
23

Given the compound Cc1ccc(N2C(=O)N(CC(=O)NC(c3ccccc3C)C(C)C)C(=O)C23CCCCC3)cc1 (stereo not shown) , write its reported IC50.
100

Give reported IC50 value for CC[C@H](NC(=O)CN1C(=O)N(c2ccc(C)cc2)C2(CCCCC2)C1=O)c1ccccc1
36

Indicate its recorded IC50; the compound in question is CCCC(NC(=O)CN1C(=O)N(c2ccc(C)cc2)C2(CCCCC2)C1=O)c1ccccc1C (stereo not shown)
31

Recall and state the measured IC50 for CCC(NC(=O)CN1C(=O)N(c2ccc(C)cc2)C2(CCCCC2)C1=O)c1ccccc1 (stereo not shown) .
50

Specify IC50 for CCC(NC(=O)CN1C(=O)N(c2ccc(C)cc2)C2(CCCCC2)C1=O)c1ccc(C)cc1 (stereo not shown) and stop.
60
